Recorded measurements of Count, one per entry
- STUDY SYSTEM: Human Myelin Basic Protein (Homo sapiens)
- Sequence (P02686 134-304): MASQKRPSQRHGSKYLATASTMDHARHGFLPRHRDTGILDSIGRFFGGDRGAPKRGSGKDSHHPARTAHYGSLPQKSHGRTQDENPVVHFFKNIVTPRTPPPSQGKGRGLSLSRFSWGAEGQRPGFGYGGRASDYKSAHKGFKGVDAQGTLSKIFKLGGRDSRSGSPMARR
- ASSAY NOTES: Phage display library screening (Example 2, Python script analysis), binding to Human Myelin Basic Protein
- Set-up: Enzo 200-606-M001 from human; purchased Enzo 200-606-M001; host or cells: human brain (tissue-derived)
- RECORDED CONDITIONS: R3 Myelin Basic Protein; combined unique sequence count, Python/R script analysis
Could you respond with only the numeric value?

substance="TSRLVST (R3 Myelin Basic Protein-binding peptide)" assay_metric=Count readout_value=8
substance="QYWDILG (R3 Myelin Basic Protein-binding peptide)" assay_metric=Count readout_value=6
substance="SNAHTLP (R3 Myelin Basic Protein-binding peptide)" assay_metric=Count readout_value=6
substance="SYVTVFR (R3 Myelin Basic Protein-binding peptide)" assay_metric=Count readout_value=6
substance="AISWKGF (R3 Myelin Basic Protein-binding peptide)" assay_metric=Count readout_value=6

Asked: For NPTDTNK (R3 Myelin Basic Protein-binding peptide) , what is its reported Count?
Given back: 8

Asked: For WSPRWPS (R3 Myelin Basic Protein-binding peptide) , what is its reported Count?
Given back: 7

Asked: For SLWTHRT (R3 Myelin Basic Protein-binding peptide) , what is its reported Count?
Given back: 6

* * *

- System: Human Myelin PLP
- ASSAY NOTES: Phage display library screening (Example 2, Python script analysis), binding to Human Myelin PLP
- RECORDED CONDITIONS: combined unique sequence count, Python/R script analysis
Class rule met: Count at least 30. Class rule not met: Count below 30.

Check out these entries, answers already filled in.
substance="ATLKPYR (R3 Myelin PLP-binding peptide)" cat="rule met"
substance="SLPSLLP (Myelin PLP-binding peptide)" cat="rule not met"
substance="QRRSVIL (Myelin PLP-binding peptide)" cat="rule met"
substance="VTGPGTP (Myelin PLP-binding peptide)" cat="rule not met"
substance="VTPNKAR (Myelin PLP-binding peptide)" cat="rule not met"
substance="SVEKYSK (Myelin PLP-binding peptide)" cat="rule met"
substance="SALISTR (Myelin PLP-binding peptide)" cat="rule met"
substance="DTSRTME (R3 Myelin PLP-binding peptide)" cat="rule met"
substance="FRIDKSM (Myelin PLP-binding peptide)" cat="rule not met"
substance="MPHAPVQ (Myelin PLP-binding peptide)" cat="rule met"

Asked: Count >= 30 for ALFQERK (Myelin PLP-binding peptide) ?
Given back: rule not met

Asked: Count >= 30 for TQPRYPS (Myelin PLP-binding peptide) ?
Given back: rule not met
